- ASSAY NOTES: Stability at 40 ± 2° C. & 75 ± 5% RH
- Format: physicochemical
- MEASUREMENT SETUP: 2 month
ENDPOINT: Total RS (Related substances) (%)
Numbers only, in %.

GET /value?item= CO/N=C(\C(=O)NC1C(=O)N2C(C(=O)[O-])=C(CSC(=O)c3ccco3)CSC12)c1csc(N)n1.[Na+] (stereo not shown) [Crystalline Ceftiofur sodium, Ceftiofur sodium] &field=Total RS (Related substances) returns 0.93

* * *

- ASSAY NOTES: Stability at 25 ± 2° C. & 60 ± 5% RH
- Assay type: physicochemical
- MEASUREMENT SETUP: Initial
ENDPOINT: Total RS (Related substances) (%)
Give bare numbers, in %.

Recorded result, CO/N=C(\C(=O)NC1C(=O)N2C(C(=O)[O-])=C(CSC(=O)c3ccco3)CSC12)c1csc(N)n1.[Na+] (stereo not shown) [Crystalline Ceftiofur sodium, Ceftiofur sodium] , Total RS (Related substances): 0.61
